result type: melting point

Incoming: Recorded melting point of OCc1cccc2cc(-c3ccccc3)oc12 , please.
Outgoing: 118 °C

Incoming: Name the recorded melting point for CC(C)(C)C(NC(=O)c1ccc(Cl)cc1)NC(=NC#N)NCc1ccc(Cl)cc1 (centres undefined) .
Outgoing: 173 to 175 °C

Incoming: Which measured melting point value corresponds to O=C(NC1CC1)c1c(NC(=O)c2cc(C(F)(F)F)nn2-c2ncccc2Cl)ccc2cc[nH]c12 ?
Outgoing: 239 to 241 °C

Incoming: For the molecule CC(=O)Oc1ccc(-c2ccc(C(C)O)cc2)cc1 (centres undefined) , what melting point is on record?
Outgoing: 142 to 144 °C

Incoming: What value of melting point has been reported for the following molecule? CCN(CC)c1ccc(C2(c3ccc(N(C)C)cc3)OC(=O)c3ccccc32)c(N(CC)CC)c1 (centres undefined)
Outgoing: 117 to 119 °C

Incoming: Look at this molecule and give its reported melting point. CCOC(=O)c1cc(CN2C(=O)C3(COc4cc5c(cc43)OCO5)c3ccccc32)oc1C(F)(F)F (centres undefined)
Outgoing: 162 to 164 °C

Incoming: If you can, please state the reported melting point value of CCOC(=O)C(=CNc1ccc(F)c(-c2ccncc2)n1)C(=O)OCC .
Outgoing: 140 to 141 °C

Incoming: melting point lookup needed for CC12CCC(C1)C(C)(C)C2(S)CCN (centres undefined) , thanks.
Outgoing: 42 to 43 °C

Incoming: # get_value(readout='melting point', item= CN(C)CC#CCNC(=O)C(O)(c1ccccc1)C1CCCCC1 (single isomer, unassigned; (-)) )
Outgoing: 120 to 121 °C
